tested target: CDK2/CycA (Homo sapiens, UniProt P24941)
Construct: purchased Proqinase
assay name: CDK2 Enzymatic Activity Assay (Lance Kinase Activity Assay, FRET)
Type: biochemical
stated conditions: Table 5B, class symbols per IC50 [nM] ranges of b581; read-out: CDK2: Selectivity of CDK7 inhibition over CDK2 inhibition
Listing: IC50 of selected compounds

Report IC50 under test system CDK2/CycA (Homo sapiens, UniProt P24941) for CCCNC(=O)Nc1ccccc1CNc1nc(O[C@@H]2CCCNC2)nc2c(C(C)C)cnn12 [(VII-110)] .
> 2500 nM

====

tested target: CDK9/Cyclin T1 (Homo sapiens, UniProt P50750)
Sequence (P50750 whole entry): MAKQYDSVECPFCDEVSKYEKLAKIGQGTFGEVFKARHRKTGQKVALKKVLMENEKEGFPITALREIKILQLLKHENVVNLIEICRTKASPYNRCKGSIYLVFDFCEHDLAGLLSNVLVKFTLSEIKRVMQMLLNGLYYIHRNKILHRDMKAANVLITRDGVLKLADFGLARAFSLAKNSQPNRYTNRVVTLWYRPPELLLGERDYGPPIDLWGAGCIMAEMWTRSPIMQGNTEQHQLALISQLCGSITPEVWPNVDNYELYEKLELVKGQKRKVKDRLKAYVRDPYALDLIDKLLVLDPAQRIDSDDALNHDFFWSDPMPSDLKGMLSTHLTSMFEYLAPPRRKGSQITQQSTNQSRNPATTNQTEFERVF
Sequence (O60563 whole entry partner): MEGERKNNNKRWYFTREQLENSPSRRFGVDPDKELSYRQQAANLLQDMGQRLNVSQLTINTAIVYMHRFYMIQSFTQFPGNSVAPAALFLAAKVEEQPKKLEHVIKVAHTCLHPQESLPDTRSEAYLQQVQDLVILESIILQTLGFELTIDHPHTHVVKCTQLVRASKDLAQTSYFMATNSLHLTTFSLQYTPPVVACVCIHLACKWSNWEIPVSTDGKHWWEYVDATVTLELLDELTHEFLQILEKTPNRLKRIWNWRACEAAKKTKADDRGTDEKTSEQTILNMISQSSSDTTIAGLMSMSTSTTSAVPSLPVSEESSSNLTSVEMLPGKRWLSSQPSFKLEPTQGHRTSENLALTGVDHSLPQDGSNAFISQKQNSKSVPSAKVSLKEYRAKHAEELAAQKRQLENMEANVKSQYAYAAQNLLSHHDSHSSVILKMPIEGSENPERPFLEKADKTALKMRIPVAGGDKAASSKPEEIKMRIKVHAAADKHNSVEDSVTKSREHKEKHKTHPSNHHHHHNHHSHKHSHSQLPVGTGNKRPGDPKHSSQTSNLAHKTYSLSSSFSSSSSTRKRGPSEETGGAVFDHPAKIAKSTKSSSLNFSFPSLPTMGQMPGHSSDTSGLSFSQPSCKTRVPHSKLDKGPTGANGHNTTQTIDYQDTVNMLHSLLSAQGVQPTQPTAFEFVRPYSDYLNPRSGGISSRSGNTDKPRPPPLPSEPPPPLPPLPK
assay name: CDK9 Enzymatic Activity Assay (Lance Kinase Activity Assay, FRET)
Type: biochemical
stated conditions: Table 5B, class symbols per IC50 [nM] ranges of b581; read-out: CDK9: Selectivity of CDK7 inhibition over CDK9 inhibition
Listing: IC50 of selected compounds

CC(C)c1cnn2c(NCc3cccc(Cl)c3Cl)nc(O[C@@H]3CCCNC3)nc12 | 50 to 500 nM
CC(C)c1cnn2c(NCc3ccccc3-n3cccn3)nc(N3CC4(CCCNC4)C3)nc12 | > 2500 nM
CC(C)c1cnn2c(NCc3c(Cl)cccc3Cl)nc(OC3CCN(C)CC3)nc12 | > 2500 nM
CC(C)c1cnn2c(NCc3ccc(F)cc3-n3cccn3)nc(O[C@@H]3CCCNC3)nc12 | 50 to 500 nM
CC(C)c1cnn2c(NCc3ccccc3-n3cccn3)nc(C(=O)N(C)CCN3CCOCC3)nc12 | > 2500 nM
CC(C)c1cnn2c(NCc3ccccc3S(=O)(=O)N(C)C)nc(O[C@@H]3CCCNC3)nc12 | 500 to 2500 nM
CC(C)c1cnn2c(NCc3ccccc3-n3cccn3)nc(NCCCN)nc12 | > 2500 nM

Consider the additional compound presented here.
Report IC50 under test system CDK9/Cyclin T1 (Homo sapiens, UniProt P50750) for C#CC(C)NC(=O)c1ccccc1CNc1nc(O[C@@H]2CCCNC2)nc2c(C(C)C)cnn12 (some centres unmarked) .
> 2500 nM

====

tested target: CDK7/CycH/Mat1 (Homo sapiens)
assay name: CDK7 Enzymatic Activity Assay (Lance Kinase Activity Assay, FRET)
Format: biochemical
stated conditions: CDK7/CycH/Mat1, 25 μM ATP final; class ranges; read-out: CDK7: IC50 [nM] for CDK7 inhibition
measurement kind: IC50

CC(C)c1cnn2c(NCc3cccc4nonc34)nc(N3CCC4(CCCN4)CC3)nc12 | < 5 nM
CC(C)c1cnn2c(NCc3ccccc3-n3cncn3)nc(N[C@@H]3CCCNC3)nc12 | < 5 nM
CC(C)c1cnn2c(NCc3ccccc3-n3cccn3)nc(N3CC4(CCNCC4)C3)nc12 | < 5 nM
CC(C)c1cnn2c(NCc3ccccc3S(=O)(=O)N3CCCC3)nc(O[C@@H]3CCCNC3)nc12 | < 5 nM
CC(C)c1cnn2c(NCc3ccccc3-n3cccn3)nc(N3CCC4(CCCCN4)C3)nc12 (centres unmarked) | < 5 nM

Name the recorded IC50 of the compound listed here: CC(C)c1cnn2c(NCc3ccccc3-n3cccn3)nc(N3CCC(N)C3)nc12 (centres unmarked)
> 25 nM

Name the recorded IC50 of the compound listed here: CC(C)c1cnn2c(NCc3ccccc3-n3cccn3)nc(C(=O)NCC3CCNCC3)nc12
< 5 nM

Name the recorded IC50 of the compound listed here: CC(C)c1cnn2c(NCc3ccccc3-n3cccn3)nc(N3CCC4(CC3)CNC4)nc12
< 5 nM

Name the recorded IC50 of the compound listed here: COc1ccccc1[C@H](C)Nc1nc(O[C@@H]2CCCNC2)nc2c(C(C)C)cnn12
< 5 nM

Name the recorded IC50 of the compound listed here: CC(C)c1cnn2c(NCc3ccccc3-n3cccn3)nc(N3CC4CCNC4C3)nc12 (centres unmarked)
10 to 25 nM

====

tested target: CDK7/CycH/Mat1 (Homo sapiens, UniProt P50613)
Sequence (P50613 whole entry): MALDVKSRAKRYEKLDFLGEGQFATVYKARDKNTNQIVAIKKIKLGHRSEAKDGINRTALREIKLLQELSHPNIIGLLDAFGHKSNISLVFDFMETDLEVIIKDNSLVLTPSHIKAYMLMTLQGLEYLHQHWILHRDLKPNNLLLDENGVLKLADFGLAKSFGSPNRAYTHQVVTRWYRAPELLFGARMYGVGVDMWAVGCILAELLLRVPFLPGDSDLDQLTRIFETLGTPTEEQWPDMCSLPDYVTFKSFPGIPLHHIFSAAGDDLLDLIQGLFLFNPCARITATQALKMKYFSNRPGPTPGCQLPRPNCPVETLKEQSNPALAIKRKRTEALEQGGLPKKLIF
assay name: CDK7 Enzymatic Activity Assay (Lance Kinase Activity Assay, FRET)
Format: biochemical
stated conditions: CDK7/CycH/Mat1, 25 μM ATP final; class ranges; read-out: CDK7: IC50 [nM] for CDK7 inhibition
measurement kind: IC50

Some entries whose results are on file:
Cc1ccc(CNc2nc(O[C@@H]3CCCNC3)nc3c(C(C)C)cnn23)c(OC2CCOC2)c1 (some centres unmarked) | > 25 nM
CC(C)c1cnn2c(NCc3ccccc3-n3cccn3)nc(N3CC4(CCNC4)C3)nc12 | < 5 nM
CC(C)c1cnn2c(NCc3cccc(Cl)c3Cl)nc(O[C@@H]3CCCNC3)nc12 | 10 to 25 nM
CC(C)c1cnn2c(NCc3ccccc3-c3cccs3)nc(O[C@@H]3CCCNC3)nc12 | < 5 nM
CC(C)c1cnn2c(NCc3ccccc3-n3ccnc3)nc(OC3CCNCC3)nc12 | < 5 nM

Name the recorded IC50 of the compound listed here: CC(C)Oc1ccccc1CNc1nc(O[C@@H]2CCNC2)nc2c(C(C)C)cnn12
< 5 nM

Name the recorded IC50 of the compound listed here: CC(C)c1cnn2c(NCc3ccc(F)cc3-n3cccn3)nc(O[C@@H]3CCCNC3)nc12
< 5 nM

Name the recorded IC50 of the compound listed here: CC(C)c1cnn2c(NCc3ccccc3-n3cccn3)nc(O[C@@H]3CCCNC3)nc12
< 5 nM

====

tested target: CDK2/CycA (Homo sapiens)
Construct: purchased Proqinase
assay name: CDK2 Enzymatic Activity Assay (Lance Kinase Activity Assay, FRET)
Type: biochemical
stated conditions: Table 5B, class symbols per IC50 [nM] ranges of b581; read-out: CDK2: Selectivity of CDK7 inhibition over CDK2 inhibition
Listing: IC50 of selected molecules

Some entries whose results are on file:
CC(C)c1cnn2c(NCc3ccccc3-n3cccn3)nc(C(=O)N3CCNCC3)nc12 [(XII-9)] | > 2500 nM
CC(C)c1cnn2c(NCc3ccccc3-n3cccn3)nc(C(=O)NCC3CCCNC3)nc12 (stereo not shown) [(XII-4)] | > 2500 nM
CCNC(=O)Oc1ccccc1CNc1nc(O[C@@H]2CCCNC2)nc2c(C(C)C)cnn12 [(VII-146)] | > 2500 nM
CC(C)c1cnn2c(NCc3ccccc3-n3cccn3)nc(C(=O)NCC3CCNCC3)nc12 [(XII-1)] | > 2500 nM
CC(C)c1cnn2c(NCc3ccccc3-n3ccnc3)nc(O[C@@H]3CCNC3)nc12 [(VII-27)] | 50 to 500 nM
CC(C)c1cnn2c(NCc3ccccc3-n3cccn3)nc(C(=O)NCC3CNC3)nc12 [(XII-2)] | > 2500 nM
CC(C)c1cnn2c(NCc3ccccc3-n3cncn3)nc(OC3CCNCC3)nc12 [(VII-22)] | 50 to 500 nM
CC(C)c1cnn2c(NCc3ccccc3-n3cccn3)nc(N3CCC4(CCCN4)C3)nc12 (stereo not shown) [(VIII-17)] | 500 to 2500 nM
CC(C)c1cnn2c(NCc3ccccc3S(=O)(=O)N(C)C)nc(O[C@@H]3CCCNC3)nc12 [(VII-38)] | 50 to 500 nM
CC(C)c1cnn2c(NCc3ccccc3[S+](C)[O-])nc(O[C@@H]3CCCNC3)nc12 (stereo partly shown) [(VII-152)] | 50 to 500 nM

Report IC50 under test system CDK2/CycA (Homo sapiens) for CC(C)c1cnn2c(NCc3ccccc3-n3cccn3)nc(CN3CC(N4CCC(F)(F)C4)C3)nc12 [(XXX-7)] .
> 2500 nM

Report IC50 under test system CDK2/CycA (Homo sapiens) for CC(C)c1cnn2c(NCc3ccccc3-n3cccn3)nc(C(=O)N(C)CCN3CCOCC3)nc12 [(XII-06)] .
500 to 2500 nM

Report IC50 under test system CDK2/CycA (Homo sapiens) for COc1ccccc1[C@H](C)Nc1nc(O[C@@H]2CCNC2)nc2c(C(C)C)cnn12 [(VII-11)] .
500 to 2500 nM

====

Listing: IC50 of selected compounds
tested target: CDK2/CycA (Homo sapiens, UniProt P24941)
Construct: purchased Proqinase
assay name: CDK2 Enzymatic Activity Assay (Lance Kinase Activity Assay, FRET)
Type: biochemical
stated conditions: Table 5B, class symbols per IC50 [nM] ranges of b581; read-out: CDK2: Selectivity of CDK7 inhibition over CDK2 inhibition

CC(C)c1cnn2c(NCc3cccc4cc[n+]([O-])cc34)nc(O[C@@H]3CCCNC3)nc12 | 50 to 500 nM
CC(C)c1cnn2c(NCc3ccccc3-n3cccn3)nc(SC3CCNCC3)nc12 | > 2500 nM

Consider the additional compound presented here.
Name the recorded IC50 of the compound listed here: CC(C)c1cnn2c(NCc3ccccc3-n3cccn3)nc(S(=O)(=O)C3CCNCC3)nc12
> 2500 nM

====

tested target: CDK7/CycH/Mat1 (Homo sapiens)
assay name: CDK7 Enzymatic Activity Assay (Lance Kinase Activity Assay, FRET)
Format: biochemical
stated conditions: CDK7/CycH/Mat1, 25 μM ATP final; class ranges; read-out: CDK7: IC50 [nM] for CDK7 inhibition
Listing: IC50 of selected molecules

CC(C)c1cnn2c(NCc3ccccc3-n3cccn3)nc(N3CCC4(CCNCC4)CC3)nc12 | 5 to 10 nM
CC(C)c1cnn2c(NCc3ccccc3-n3cccn3)nc(N3CC(N4CCC(F)(F)C4)C3)nc12 | > 25 nM
COc1ccccc1CNc1nc(OC2CCN(C)CC2)nc2c(C(C)C)cnn12 | < 5 nM
CC(C)c1cnn2c(NCc3ccccc3-n3cccn3)nc(C(=O)NCCCN)nc12 | > 25 nM
CC(C)c1cnn2c(NCc3ccccc3C#N)nc(OC3CCN(C)CC3)nc12 | 10 to 25 nM
CC(C)c1cnn2c(NCc3ccccc3-n3cccn3)nc(OC3CCN(C)CC3)nc12 | < 5 nM

Report IC50 under test system CDK7/CycH/Mat1 (Homo sapiens) for CC(C)c1cnn2c(NCc3ccccc3-n3cccn3)nc(NC3CCNC3)nc12 (centres unmarked) .
5 to 10 nM

Report IC50 under test system CDK7/CycH/Mat1 (Homo sapiens) for Cc1nccn1-c1ccccc1CNc1nc(O[C@@H]2CCCNC2)nc2c(C(C)C)cnn12 .
< 5 nM
